Origin of values: patent US8501794B2

Biological target: rat CB2 (Rattus norvegicus)
Sequence (Q9QZN9 whole entry): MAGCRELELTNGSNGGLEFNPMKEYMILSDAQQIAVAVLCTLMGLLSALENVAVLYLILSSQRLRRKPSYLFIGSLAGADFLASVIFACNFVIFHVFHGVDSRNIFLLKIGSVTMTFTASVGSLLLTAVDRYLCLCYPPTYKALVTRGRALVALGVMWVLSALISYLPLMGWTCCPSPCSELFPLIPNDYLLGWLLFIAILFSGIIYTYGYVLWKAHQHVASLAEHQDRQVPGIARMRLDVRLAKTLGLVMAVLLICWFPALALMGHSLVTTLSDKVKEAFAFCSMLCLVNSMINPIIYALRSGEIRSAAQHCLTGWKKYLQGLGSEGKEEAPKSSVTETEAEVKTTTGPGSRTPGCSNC
Experiment: rat CB2 radioligand binding assay ([3H]CP-55,940 competition)
Design: expressed in transfected cells; host or cells: HEK293
Conditions: HEK293 membranes, 0.5 nM [3H]CP-55,940; read-out: rat CB2 (Ki)
I'd appreciate it if you could supply pKi values for the items below.
Please report pKi as the negative decimal logarithm of the molar concentration, giving only the number.

Incoming: // query pKi value for entry CCCCc1cn(C(C)(C)C)s/c1=N\C(=O)[C@@H]1CC[C@](C)(C(=O)NCCC)C1(C)C
Outgoing: 6.95

Incoming: // query pKi value for entry CCCCc1cn(C(C)(C)C)s/c1=N\C(=O)[C@@]1(C)CC[C@@H](C(=O)NC2CCC2)C1(C)C
Outgoing: 6.37

Incoming: // query pKi value for entry CCCCc1cn(C(C)(C)C)s/c1=N\C(=O)[C@]1(C)CC[C@H](C(=O)NCc2cccnc2)C1(C)C
Outgoing: 6.59

Incoming: // query pKi value for entry CC(C)Cc1cn(C(C)(C)C)s/c1=N\C(=O)c1cc(C(F)(F)F)ccc1OCc1ccccn1
Outgoing: 6.41

Incoming: // query pKi value for entry CCCCc1cn(C(C)(C)C)s/c1=N\C(=O)[C@]1(C)CC[C@H](NC(=O)OCC)C1(C)C
Outgoing: 6.52

Incoming: // query pKi value for entry CCCCc1cn(C(C)(C)C)s/c1=N\C(=O)[C@]1(C)CC[C@H](NC(=O)N2CCCC2)C1(C)C
Outgoing: 6.82

###

Target: human CB2 receptors (Homo sapiens)
Construct: expressed in transfected cells; host or cells: HEK293
Assay: human CB2 radioligand binding assay ([3H]CP-55,940 competition)
Could you please mark criterion met for values of Ki below 40 nM and criterion not met for values at or above it?

Incoming: Just wondering, is Ki of CCCCc1cn(C(C)(C)C)s/c1=N\C(=O)[C@]1(C)CC[C@H](NC(=O)N2CCOCC2)C1(C)C below 40 nM?
Outgoing: criterion not met

Incoming: Just wondering, is Ki of CCCCc1cn(C(C)(C)C)s/c1=N\C(=O)[C@]1(C)CC[C@H](C(=O)O)C1(C)C below 40 nM?
Outgoing: criterion not met

Incoming: Just wondering, is Ki of CCCCc1cn(C(C)(C)C)s/c1=N\C(=O)NC1CCC(C)CC1 (centres unmarked) below 40 nM?
Outgoing: criterion met

Incoming: Just wondering, is Ki of CCCCc1cn(C(C)(C)C)s/c1=N\C(=O)N[C@H](C(=O)NC)C(C)(C)C below 40 nM?
Outgoing: criterion met

Incoming: Just wondering, is Ki of CCCCc1cn(C(C)(C)C(F)(F)F)s/c1=N\C(=O)c1cc(Cl)ccc1OC below 40 nM?
Outgoing: criterion met

Incoming: Just wondering, is Ki of CCCCc1cn(C(C)(C)C)s/c1=N\C(=O)[C@]1(C)CC[C@H](C(=O)NCC(F)(F)F)C1(C)C below 40 nM?
Outgoing: criterion met

Incoming: Just wondering, is Ki of CCCCc1cn(C(C)(C)C)s/c1=N\S(=O)(=O)c1cccc2ccccc12 below 40 nM?
Outgoing: criterion not met

###

Molecular target: human CB2 receptors (Homo sapiens, UniProt P34972)
Construct: expressed in transfected cells; host or cells: HEK293
Sequence (P34972 whole entry): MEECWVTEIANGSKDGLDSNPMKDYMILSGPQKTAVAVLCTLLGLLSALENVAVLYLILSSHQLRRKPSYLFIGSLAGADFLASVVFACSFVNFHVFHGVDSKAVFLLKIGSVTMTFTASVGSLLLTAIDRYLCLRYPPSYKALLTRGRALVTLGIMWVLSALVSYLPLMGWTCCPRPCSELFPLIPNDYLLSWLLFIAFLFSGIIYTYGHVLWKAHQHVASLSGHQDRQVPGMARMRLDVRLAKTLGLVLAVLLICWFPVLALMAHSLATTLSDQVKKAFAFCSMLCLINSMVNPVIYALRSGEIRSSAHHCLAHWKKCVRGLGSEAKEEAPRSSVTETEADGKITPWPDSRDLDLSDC
Test: human CB2 radioligand binding assay ([3H]CP-55,940 competition)
OUTCOME MEASURE: Ki
State the value with its unit after it.

Incoming: // query Ki value for entry CCCCc1cn(C(C)(C)C)s/c1=N\C(=O)[C@]1(C)CC[C@H](C(=O)NCCO)C1(C)C [Example 203]
Outgoing: 70 nM

Incoming: // query Ki value for entry CCCCc1cn(C(C)(C)C)s/c1=N\C(=O)c1cc(I)ccc1OC [Example 61]
Outgoing: 7.6 nM

Incoming: // query Ki value for entry COc1ccc(Cl)cc1C(=O)/N=c1\sn(C(C)(C)C)cc1CCC(C)(C)C#N [Example 137]
Outgoing: 7.5 nM

Incoming: // query Ki value for entry COc1ccc(Cl)cc1C(=O)/N=c1\sn(C(C)(C)C)cc1CC1CC1 [Example 8]
Outgoing: 4 nM

###

Molecular target: human CB2 receptors (Homo sapiens, UniProt P34972)
Construct: expressed in transfected cells; host or cells: HEK293
Test: human CB2 radioligand binding assay ([3H]CP-55,940 competition)
I'd appreciate it if you could supply log10 Ki values for the items below.
Values reflect log10 of reported Ki (nM).

Incoming: // query log10 Ki value for entry COc1ccc(Cl)cc1C(=O)/N=c1\sn(C(C)(C)C)cc1OCCCCF
Outgoing: 1.68

Incoming: // query log10 Ki value for entry CCCCc1cn(C(C)(C)C)s/c1=N\C(=O)[C@]1(C)CC[C@H](NC(=O)NC)C1(C)C
Outgoing: 0.79

Incoming: // query log10 Ki value for entry CCCCc1cn(C(C)(C)C)s/c1=N\C(=O)[C@]1(C)CC[C@H](C(=O)NC[C@H]2CCCO2)C1(C)C
Outgoing: 2.11

Incoming: // query log10 Ki value for entry CCCCc1cn(C(C)(C)C)s/c1=N\C(=O)[C@]1(C)CC[C@H](C(=O)NC)C1(C)C
Outgoing: 0.81

Incoming: // query log10 Ki value for entry COc1ccc(Cl)cc1C(=NC#N)/N=c1\sn(C(C)(C)C)cc1CCCC#N
Outgoing: 1.18

Incoming: // query log10 Ki value for entry COc1ccc(C(F)(F)F)cc1C(=O)/N=c1\sn(C(C)(C)C)cc1CCCC(C)(C)O
Outgoing: 1.65

Incoming: // query log10 Ki value for entry CCCCc1cn(C(C)(C)C)s/c1=N\S(=O)(=O)c1cccc(Cl)c1Cl
Outgoing: 1.26

Incoming: // query log10 Ki value for entry CCCCc1cn(C(C)(C)C)s/c1=N\C(=O)[C@]1(C)CC[C@H](C(=O)OCC)C1(C)C
Outgoing: 0.58

###

Target: human CB2 receptors (Homo sapiens, UniProt P34972)
Construct: expressed in transfected cells; host or cells: HEK293
Assay: human CB2 radioligand binding assay ([3H]CP-55,940 competition)
I'd appreciate it if you could supply pKi values for the items below.
Please report pKi as the negative decimal logarithm of the molar concentration, giving only the number.

Incoming: Request - read-out pKi | tested on human CB2 receptors (Homo sapiens, UniProt P34972) | compound COc1ccc(Cl)cc1C(=O)/N=c1\sn(C(C)(C)C)cc1CCCC(C)(F)F [Example 86]
Outgoing: 8.36

Incoming: Request - read-out pKi | tested on human CB2 receptors (Homo sapiens, UniProt P34972) | compound CCCCc1cn(C(C)(C)C)s/c1=N\C(=O)c1cc(C=O)ccc1OC [Example 56]
Outgoing: 7.96

Incoming: Request - read-out pKi | tested on human CB2 receptors (Homo sapiens, UniProt P34972) | compound COc1ccc(Cl)cc1C(=O)/N=c1\sn(C(C)(C)C)cc1C(O)CC1CCC1 (centres unmarked) [Example 33]
Outgoing: 8.43

Incoming: Request - read-out pKi | tested on human CB2 receptors (Homo sapiens, UniProt P34972) | compound CCCCc1cn(C(C)(C)C)s/c1=N\C(=O)[C@]1(C)CC[C@H](NC(=O)OC)C1(C)C [Example 215]
Outgoing: 7.16

Incoming: Request - read-out pKi | tested on human CB2 receptors (Homo sapiens, UniProt P34972) | compound COc1ccc(Cl)cc1C(=O)/N=c1\sn(C(C)(C)C)cc1CN=[N+]=[N-] [Example 32]
Outgoing: 6.77

Incoming: Request - read-out pKi | tested on human CB2 receptors (Homo sapiens, UniProt P34972) | compound CCCCc1cn(C(C)(C)C)s/c1=N\C(=O)C1CCC(C)(C(=O)O)C1(C)C (centres unmarked) [Example 105]
Outgoing: 7.72

Incoming: Request - read-out pKi | tested on human CB2 receptors (Homo sapiens, UniProt P34972) | compound COc1ccc(Cl)cc1C(=O)/N=c1\sn(C(C)(C)C)cc1COCC(F)F [Example 91]
Outgoing: 7.35

Incoming: Request - read-out pKi | tested on human CB2 receptors (Homo sapiens, UniProt P34972) | compound CCCCc1cn(C(C)(C)C)s/c1=N\C(=O)c1cc(C(C)(F)F)ccc1OC [Example 69]
Outgoing: 7.74

###

Biological target: UniProtKB Q9QZN9
Assay: rat CB2 cyclase functional assay (HitHunter cAMP, HEK cells)
Format: cell-based
Design: expressed in transfected cells; host or cells: HEK
Details: forskolin 18 μM
EC50 class ranges: range 1: < 0.1 nM; range 2: ≥ 0.1 nM and < 1 nM; range 3: ≥ 1 nM

Incoming: Please let me know in which category the item CCCCc1cn(C(C)(C)C)s/c1=N\C(=O)C1CCC(C)(C(=O)O)C1(C)C (stereo not drawn) [Example 105] belongs.
Outgoing: range 2

Incoming: Please let me know in which category the item CCCCc1cn(C(C)(C)C)s/c1=N\C(=O)[C@@H]1CC[C@](C)(C(=O)NCCO)C1(C)C [Example 212] belongs.
Outgoing: range 3

Incoming: Please let me know in which category the item CCCCc1cn(C(C)(C)C)s/c1=N\C(=O)[C@@]1(C)CC[C@@H](C(=O)NCC(F)(F)F)C1(C)C [Example 240] belongs.
Outgoing: range 3

Incoming: Please let me know in which category the item CCCCc1cn(C(C)(C)C)s/c1=N\C(=NC#N)c1cc(C(F)(F)F)ccc1OC[C@@H]1CCCN1C [Example 193] belongs.
Outgoing: range 3

Incoming: Please let me know in which category the item CCCCc1cn(C(C)(C)C)s/c1=N\C(=O)[C@@]1(C)CC[C@@H](C(=O)N2CCC2)C1(C)C [Example 222] belongs.
Outgoing: range 3

Incoming: Please let me know in which category the item CCCCc1cn(C(C)(C)C)s/c1=N\C(=O)c1cc(C(F)(F)F)ccc1OC [Example 127] belongs.
Outgoing: range 2

Incoming: Please let me know in which category the item CC(C)(C)n1cc(CCCC#N)/c(=N/C(=O)c2cc(Cl)ccc2OCC(N)=O)s1 [Example 141] belongs.
Outgoing: range 1

Incoming: Please let me know in which category the item CCCCc1cn(C(C)(C)C)s/c1=N\C(=O)C1(C)CCC(C(=O)N(C)C)C1(C)C (stereo not drawn) [Example 99] belongs.
Outgoing: range 3

Incoming: Please let me know in which category the item COC(=O)CCCc1cn(C(C)(C)C)s/c1=N\C(=O)c1cc(C#N)ccc1OC [Example 46] belongs.
Outgoing: range 2

Incoming: Please let me know in which category the item CCCCc1cn(C(C)(C)C)s/c1=N\C(=O)[C@]1(C)CC[C@H](C(=O)NC)C1(C)C [Example 184] belongs.
Outgoing: range 2

Incoming: Please let me know in which category the item CCCCc1cn(C(C)(C)C)s/c1=N\C(=O)c1cc(C(F)(F)F)ccc1OC[C@@H]1COC(=O)N1 [Example 195] belongs.
Outgoing: range 3

Incoming: Please let me know in which category the item COc1ccc(C(F)(F)F)cc1C(=O)/N=c1\sn(C(C)(C)C)cc1CCCCF [Example 149] belongs.
Outgoing: range 2

Incoming: Please let me know in which category the item CCCCc1cn(C(C)(C)C)s/c1=N\S(=O)(=O)C1CCCCC1 [Example 118] belongs.
Outgoing: range 3

Incoming: Please let me know in which category the item CCCCc1cn(C(C)(C)C)s/c1=N\C(=O)c1cc(Cl)ccc1OC [Example 1] belongs.
Outgoing: range 2

Incoming: Please let me know in which category the item COc1ccc(Cl)cc1C(=O)/N=c1\sn(C(C)(C)C)cc1C(O)C(C)C (stereo not drawn) [Example 23] belongs.
Outgoing: range 2

Incoming: Please let me know in which category the item CCCCc1cn(C(C)(C)C)s/c1=N\C(=O)[C@]1(C)CC[C@H](C(=O)O)C1(C)C [Example 173] belongs.
Outgoing: range 3

Incoming: Please let me know in which category the item COc1ccc(Cl)cc1C(=O)/N=c1\sn(C(C)(C)C)cc1CCCC(C)(C)O [Example 80] belongs.
Outgoing: range 1

Incoming: Please let me know in which category the item CCCCc1cn(C(C)(C)C)s/c1=N\C(=NC#N)c1cc(C(F)(F)F)ccc1OCC [Example 126] belongs.
Outgoing: range 1

Incoming: Please let me know in which category the item CCCCc1cn(C(C)(C)C)s/c1=N\C(=O)c1cc(/C(C)=N\O)ccc1OC [Example 68] belongs.
Outgoing: range 1

Incoming: Please let me know in which category the item CCCCc1cn(C(C)(C)C)s/c1=N\C(=O)[C@]1(C)CC[C@H](C(=O)OCC)C1(C)C [Example 175] belongs.
Outgoing: range 2

Incoming: Please let me know in which category the item COc1ccc(Cl)cc1C(=O)/N=c1\sn(C(C)(C)C)cc1CCC(C)(C)F [Example 87] belongs.
Outgoing: range 2

Incoming: Please let me know in which category the item COc1ccc(Cl)cc1C(=O)/N=c1\sn(C(C)(C)C)cc1CCCCF [Example 148] belongs.
Outgoing: range 2

Incoming: Please let me know in which category the item CCCCc1cn(C(C)(C)C)s/c1=N\C(=O)[C@]1(C)CC[C@H](C(=O)OC)C1(C)C [Example 177] belongs.
Outgoing: range 2

Incoming: Please let me know in which category the item COc1ccc(Cl)cc1C(=O)/N=c1\sn(C(C)(C)C)cc1CCC1CCC1 [Example 36] belongs.
Outgoing: range 2

Incoming: Please let me know in which category the item CCCCc1cn(C(C)(C)C)s/c1=N\C(=O)[C@]1(C)CC[C@H](C(=O)NCC)C1(C)C [Example 201] belongs.
Outgoing: range 3

Incoming: Please let me know in which category the item CCCCc1cn(C(C)(C)C)s/c1=N\C(=O)c1cc(C(=O)OC)ccc1OC [Example 74] belongs.
Outgoing: range 1

Incoming: Please let me know in which category the item CCCCc1cn(C(C)(C)C)s/c1=N\C(=O)c1cc(C(F)(F)F)ccc1OC[C@@H]1CCCN1C [Example 192] belongs.
Outgoing: range 3

Incoming: Please let me know in which category the item COc1ccc(Cl)cc1C(=O)/N=c1\sn(C(C)(C)C)cc1COCC(F)(F)F [Example 85] belongs.
Outgoing: range 2

Incoming: Please let me know in which category the item CCCCc1cn(C(C)(C)C)s/c1=N\C(=O)c1cc(C(C)=O)ccc1OC [Example 64] belongs.
Outgoing: range 1

Incoming: Please let me know in which category the item CCCCc1cn(C(C)(C)C)s/c1=N\C(=O)C1C(C)(C)C1(C)C [Example 121] belongs.
Outgoing: range 2

Incoming: Please let me know in which category the item CCOc1ccc(C(F)(F)F)cc1C(=O)/N=c1\sn(C(C)(C)C)cc1CC(C)C [Example 146] belongs.
Outgoing: range 2
